Test system: human non-small cell lung cancer (NSCLC) U1810 cells
Test: MTT viability assay, U1810 cells
Type: cell-based
Conditions: 48 h exposure, read-out: IC50 (concentration causing 50% inhibition of viability)

{"molecule": "Cc1[nH+]cc(COP(=O)([O-])[O-])c(CN(CCN(CC(=O)[O-])Cc2c(COP(=O)([O-])O)c[nH+]c(C)c2O)CC(=O)[O-])c1O.[Mn].[Na+].[Na+].[Na+]", "target.system": "human non-small cell lung cancer (NSCLC) U1810 cells", "readout.units": "µM", "IC50": 437}
{"molecule": "Cc1ncc(COP(=O)(O)O)c(CN(CCN(CC(=O)O)Cc2c(COP(=O)(O)O)cnc(C)c2O)CC(=O)O)c1O", "target.system": "human non-small cell lung cancer (NSCLC) U1810 cells", "readout.units": "µM", "IC50": 52.8}
